Values from patent US12227501B2

Record set of pIC50 for target or system human CSNK1D (Homo sapiens (Human), UniProt P48730).
As a rule, pIC50 stands for the negative log10 of the concentration, concentration in M.

Log: human CSNK1D (Homo sapiens (Human), UniProt P48730), compound CC1(C)Cc2[nH]c(-c3ccnc(NC(=O)C(CC(F)F)c4ccc(F)cc4)c3)c(Nc3cccc(F)n3)c2C(=O)N1 (single isomer, unassigned; enantiomer 2) [Example 130] , pIC50 = 7.15

Recorded pIC50 for CC(C(=O)Nc1cc(-c2[nH]c3c(c2Nc2ccccc2)C(=O)NC(C)(C)C3)ccn1)c1ccc(F)cc1 (single isomer, unassigned; (+)) [Example 40] on human CSNK1D (Homo sapiens (Human), UniProt P48730) was 7.98

Assay human CSNK1D (Homo sapiens (Human), UniProt P48730), sample CC1(C)Cc2[nH]c(-c3ccnc(NC(=O)C(CC(F)F)c4ccc(F)cc4)c3)c(Nc3cccc(F)c3Cl)c2C(=O)N1 (racemic) [Example 109] , pIC50 read: 7.85

The reported pIC50 value, human CSNK1D (Homo sapiens (Human), UniProt P48730), for CC(C(=O)Nc1cc(-c2[nH]c3c(c2Nc2ccccc2)C(=O)N(C)C2(CCC2)C3)ccn1)c1ccc(F)cc1 (single isomer, unassigned; enantiomer 2) [Example 159] reads 7.04

Short answer on human CSNK1D (Homo sapiens (Human), UniProt P48730) for O=C1NC2(CC2)Cc2[nH]c(-c3ccnc(NC(=O)C(CC(F)F)c4ccc(F)cc4)c3)c(Nc3ccccc3)c21 (single isomer, unassigned; enantiomer 1) [Example 148] , pIC50: 8.08

* * *

tested target: human CSNK1D (Homo sapiens (Human), UniProt P48730)
Sequence (P48730 whole entry): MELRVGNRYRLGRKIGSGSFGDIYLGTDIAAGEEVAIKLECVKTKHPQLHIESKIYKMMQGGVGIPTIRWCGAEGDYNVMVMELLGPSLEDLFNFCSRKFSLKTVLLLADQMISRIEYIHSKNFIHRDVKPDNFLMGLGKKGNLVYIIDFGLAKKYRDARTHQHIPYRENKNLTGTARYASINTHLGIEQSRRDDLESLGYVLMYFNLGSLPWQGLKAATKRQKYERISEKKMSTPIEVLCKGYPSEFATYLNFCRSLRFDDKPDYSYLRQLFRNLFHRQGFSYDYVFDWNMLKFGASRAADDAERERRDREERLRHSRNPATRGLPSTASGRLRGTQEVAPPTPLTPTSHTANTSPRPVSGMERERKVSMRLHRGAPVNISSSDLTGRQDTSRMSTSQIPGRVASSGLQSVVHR
parameter: IC50

Form field IC50, entry CC1Cc2[nH]c(-c3ccnc(NC(=O)Cc4ccncc4)c3)c(Nc3ccccc3)c2C(=O)N1C (single isomer, unassigned; (-)) [Example 99] : 5.1 nM

IC50 in this record for CN1CCc2[nH]c(-c3ccnc(NC(=O)Cc4ccccn4)c3)c(Nc3ccccc3)c2C1=O [Example 115] : 5.09 nM

compound CC(C(=O)Nc1cc(-c2[nH]c3c(c2Nc2ccccc2)C(=O)NC(C)(C)C3)ccn1)c1ccc(F)cc1 (single isomer, unassigned) [Example 39] , IC50 observed: 214 nM

// recorded IC50 for COC(=O)c1ccc(CC(=O)Nc2cc(-c3[nH]c4c(c3Nc3ccccc3)C(=O)N(C)CC4)ccn2)cc1 [Example 117] : 2.99 nM

The compound CC(C(=O)Nc1cc(-c2[nH]c3c(c2Nc2ccccc2)C(=O)N(C)C(C)C3)ccn1)c1ccc(F)cc1 (single isomer, unassigned; (+)) [Example 96] showed IC50 equal to 4.36 nM

Entry CN1CCc2[nH]c(-c3ccnc(NC(=O)Cc4cccc(S(C)(=O)=O)c4)c3)c(Nc3ccccc3)c2C1=O [Example 69] ; IC50 = 4.68 nM

* * *

tested target: wild-type Epidermal Growth Factor Receptor (EGFR) (Homo sapiens (Human))
Sequence (P00533 669-1210): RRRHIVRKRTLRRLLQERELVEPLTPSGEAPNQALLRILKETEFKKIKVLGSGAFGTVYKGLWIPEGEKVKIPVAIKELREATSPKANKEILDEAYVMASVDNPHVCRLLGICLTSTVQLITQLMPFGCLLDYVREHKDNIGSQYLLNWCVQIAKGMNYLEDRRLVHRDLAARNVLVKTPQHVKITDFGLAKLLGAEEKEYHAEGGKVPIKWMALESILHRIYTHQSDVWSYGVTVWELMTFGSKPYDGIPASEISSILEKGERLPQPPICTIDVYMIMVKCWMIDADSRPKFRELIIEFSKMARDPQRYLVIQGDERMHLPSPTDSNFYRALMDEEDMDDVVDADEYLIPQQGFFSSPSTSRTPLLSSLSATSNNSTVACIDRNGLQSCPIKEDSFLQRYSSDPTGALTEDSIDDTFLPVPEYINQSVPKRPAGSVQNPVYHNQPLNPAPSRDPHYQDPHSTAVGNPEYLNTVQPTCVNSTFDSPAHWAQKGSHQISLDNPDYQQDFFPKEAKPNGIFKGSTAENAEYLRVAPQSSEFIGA
assay procedure: WT-EGFR Kinase Assay (TR-FRET, 2 mM ATP)
Format: biochemical
details: read-out: EGFR Wildtyp- 2 mM ATP IC50 [mol/l] (median)
Could you please mark y for values of IC50 below 1 µM and n for values at or above it?

Please indicate whether the reported IC50 of CC(C(=O)Nc1cc(-c2[nH]c3c(c2Nc2ccccc2)C(=O)N(C)C2(CCC2)C3)ccn1)c1ccc(F)cc1 (single isomer, unassigned; enantiomer 2) is strictly below 1 µM.
n

API: query returns whether the molecule falls strictly under 1 µM in IC50. Query: "CC1(C)Cc2[nH]c(-c3ccnc(NC(=O)Cc4ccc(F)cc4)c3)c(Nc3ccccc3F)c2C(=O)N1"
n

I wonder whether CC1(C)Cc2[nH]c(-c3ccnc(NC(=O)C(CC(F)F)c4ccc(F)cc4)c3)c(Nc3cccc(F)n3)c2C(=O)N1 (single isomer, unassigned; enantiomer 2) has IC50 below 1 µM. Can you tell?
n

State whether 1 µM exceeds IC50 recorded for CC(C(=O)Nc1cc(-c2[nH]c3c(c2Nc2ccccc2)C(=O)NC(C)(C)C3)ccn1)c1ccc(F)cc1 (stereo not shown) .
n

Please check: IC50 for O=C1NC2(CCC2)Cc2[nH]c(-c3ccnc(NC(=O)C(CC(F)F)c4ccc(F)cc4)c3)c(Nc3cccc(F)c3Cl)c21 (single isomer, unassigned; enantiomer 2) , strictly under 1 µM or not?
n

I wonder whether "O=C(Cc1ccc(F)cc1)Nc1cc(-c2[nH]c3c(c2Nc2cccc(F)c2Cl)C(=O)NCC3)ccn1" has IC50 below 1 µM. Can you tell?
y

# strict comparison: is reported IC50 < 1 µM? input = CC(C(=O)Nc1cc(-c2[nH]c3c(c2Nc2ccccc2)C(=O)N(C2CC2)CC3)ccn1)c1ccc(F)cc1 (stereo not shown)
n

is_below(IC50, 1 µM) for "CN1CCc2[nH]c(-c3ccnc(NC(=O)Cc4ccc(C(F)F)cc4)c3)c(Nc3ccccc3)c2C1=O" ?
n

Is IC50 strictly under 1 µM for the entry "CC1(C)Cc2[nH]c(-c3ccnc(NC(=O)Cc4ccncc4)c3)c(Nc3ccccc3)c2C(=O)N1" ?
y

Is 1 µM strictly greater than the molecule's reported IC50? molecule: "CN1CCc2[nH]c(-c3ccnc(NC(=O)Cc4cccc(C(F)(F)F)c4)c3)c(Nc3ccccc3)c2C1=O"
n

Please check: IC50 for "CN1CCc2[nH]c(-c3ccnc(NC(=O)Cc4ccncc4)c3)c(Nc3ccccc3)c2C1=O" , strictly under 1 µM or not?
n

Is it true that IC50 reported for CC(C(=O)Nc1cc(-c2[nH]c3c(c2Nc2ccccc2)C(=O)N(C)CC3)ccn1)c1ccc(Cl)cc1 (single isomer, unassigned; (+)) is less than 1 µM?
n

Given the entry "CN1CCc2[nH]c(-c3ccnc(NC(=O)Cc4ccc(F)cc4F)c3)c(Nc3ccccc3)c2C1=O" , would its reported IC50 be below 1 µM?
n
